The values you see were collected from a melting point compilation (Tetko et al.; mined from patent text by program, amines drawn as free bases though some values may be those of a salt).

Property Label: melting point

In one line, give reported melting point of the entry CC(=O)C=CCCc1ccc(OCc2ccccc2)cc1 .
70 to 72 °C

In one line, give reported melting point of the entry COc1cccc2c1C(C#N)C2 (stereo unspecified) .
58 to 59 °C

In one line, give reported melting point of the entry NS(=O)(=O)c1ccc(-c2oc3ccc(F)cc3c(=O)c2-c2ccccc2)cc1 .
228 to 229 °C

In one line, give reported melting point of the entry CN1CCN(c2cc(Cl)cc3c2c(=O)n(CC2CCCCC2)c(=O)n3Cc2ccccc2)CC1 .
163 to 169 °C

In one line, give reported melting point of the entry c1ccc(-c2csc(CN3CCN(c4ccccc4)CC3)n2)cc1 .
142 to 143 °C

In one line, give reported melting point of the entry Clc1ccc(-c2cnccn2)cc1 .
77 to 77.5 °C

In one line, give reported melting point of the entry O=S(=O)(NCC(O)(Cn1cncn1)c1ccc(Cl)cc1Cl)c1ccc2ccccc2c1 (stereo unspecified) .
179 to 180 °C

In one line, give reported melting point of the entry COc1ccc(C(C)=C2SCCCS2)cc1C(=O)O .
130 to 132 °C

In one line, give reported melting point of the entry O=C1CCC(c2ccc(CCCCNC(=O)c3cccnc3)cc2)=NN1 .
178 to 179 °C

In one line, give reported melting point of the entry O=C(O)C1CCCN1S(=O)(=O)c1ccc(-c2ccccc2)cc1 (stereo unspecified) .
133 to 135 °C

In one line, give reported melting point of the entry COc1cccc(C(=O)CS(C)=O)c1N (stereo unspecified) .
106 to 108 °C
